Numbers sourced from ChEMBL document CHEMBL1201861.

tested on: QIMR-WIL; test: cells; format: functional, cell-based; conditions: Homo sapiens;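 note: growth inhibition of QIMR-WIL cells, read out with a cell viability assay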
Description: SANGER: Inhibition of human QIMR-WIL cell growth in a cell viability assay.
pIC50: −log10 of the molar value.
Recorded pIC50 values for a group of compounds are listed next.
Endpoint label: pIC50

INSERT INTO measurements (compound, operator_symbol, assay_value) VALUES
  ('O=c1cc(-c2cccc3c2Sc2ccccc2S3)oc(N2CCOCC2)c1', '<', 5.00),
  ('Cn1cc(C2=C(c3ccc(Cl)cc3Cl)C(=O)NC2=O)c2ccccc21', '<', 5.00),
  ('O=C(NOCC1CC1)c1ccc(F)c(F)c1Nc1ccc(I)cc1Cl', '<', 5.00),
  ('O=C(/C=C/c1ccccc1)NC(NC(=S)Nc1cccc2cccnc12)C(Cl)(Cl)Cl (configuration not stated)', '<', 4.80),
  ('CC(=O)O[C@@]12CO[C@@H]1C[C@H](O)[C@@]1(C)C(=O)[C@H](O)C3=C(C)[C@@H](OC(=O)[C@H](O)[C@@H](NC(=O)OC(C)(C)C)c4ccccc4)C[C@@](O)([C@@H](OC(=O)c4ccccc4)[C@H]21)C3(C)C', '=', 8.36),
  ('CS(=O)(=O)CCNCc1ccc(-c2ccc3ncnc(Nc4ccc(OCc5cccc(F)c5)c(Cl)c4)c3c2)o1', '<', 5.70),
  ('CCC1=C[C@@H]2CN(C1)Cc1c([nH]c3ccccc13)[C@@](C(=O)OC)(c1cc3c(cc1OC)N(C)[C@H]1[C@@](O)(C(=O)OC)[C@H](OC(C)=O)[C@]4(CC)C=CCN5CC[C@]31[C@@H]54)C2', '=', 8.52),
  ('COc1ccc(-c2ccc3c(N4CCOC[C@@H]4C)nc(N4CCOC[C@@H]4C)nc3n2)cc1CO', '=', 6.35),
  ('CC(=O)O[C@@H]1[C@@H](OC(C)=O)[C@@H](O)[C@H](Oc2c(-c3ccc(O)cc3)oc3cc(O)cc(O)c3c2=O)O[C@H]1C', '<', 5.00),
  ('Nc1ccn([C@@H]2O[C@H](CO)[C@@H](O)[C@@H]2O)c(=O)n1', '<', 5.70),
  ('CCc1nc(N)nc(N)c1-c1ccc(Cl)cc1', '=', 5.18),
  ('CO[C@H]1C[C@@H]2CC[C@@H](C)[C@@](O)(O2)C(=O)C(=O)N2CCCC[C@H]2C(=O)O[C@H]([C@H](C)C[C@@H]2CC[C@@H](O)[C@H](OC)C2)CC(=O)[C@H](C)/C=C(\C)[C@@H](O)[C@@H](OC)C(=O)[C@H](C)C[C@H](C)/C=C/C=C/C=C/1C', '=', 7.93);

---

system: Huh-7; assay: cells; format: functional, cell-based, Homo sapiens; conditions: Homo sapiens, Huh-7
Description: SANGER: Inhibition of human HuH-7 cell growth in a cell viability assay.
pIC50: −log10 of the molar value.
# binarize pIC50: threshold 5 inclusive, high side Condition met, low side Condition not met

INSERT INTO measurements (compound, system_under_test, classification) VALUES
  ('COc1cc(F)c(F)c(Nc2ccc(I)cc2F)c1NS(=O)(=O)C1(CC(O)CO)CC1 (centres undefined)', 'Huh-7', 'Condition met'),
  ('COc1ccc(-c2ccc3c(N4CCOC[C@@H]4C)nc(N4CCOC[C@@H]4C)nc3n2)cc1CO', 'Huh-7', 'Condition met'),
  ('COC(=O)CNC(=O)C(=O)OC', 'Huh-7', 'Condition not met'),
  ('CC(=O)O[C@@H]1[C@@H](OC(C)=O)[C@@H](O)[C@H](Oc2c(-c3ccc(O)cc3)oc3cc(O)cc(O)c3c2=O)O[C@H]1C', 'Huh-7', 'Condition not met'),
  ('CCC1=C[C@@H]2CN(C1)Cc1c([nH]c3ccccc13)[C@@](C(=O)OC)(c1cc3c(cc1OC)N(C)[C@H]1[C@@](O)(C(=O)OC)[C@H](OC(C)=O)[C@]4(CC)C=CCN5CC[C@]31[C@@H]54)C2', 'Huh-7', 'Condition met');
